Quick reference for relative viability among some compounds
Tested on: HT1080
Assay: relative viability vs DMSO control (72 h) (fraction); higher = more viable cells
Details: 0.00152 µM

compound: Cc1cccc(-c2[nH]c(CNc3ccccc3F)nc2-c2ccc3ncnn3c2)n1 [Vactosertib]
measured-target: HT1080
relative viability: 0.967
//
compound: FC(F)(F)c1ccc(CNc2ccc(Cc3c[nH]c4ncc(Cl)cc34)cn2)cn1 [Pexidartinib]
measured-target: HT1080
relative viability: 1.12
//
compound: COc1cc2ncnc(Nc3cccc(Cl)c3F)c2cc1OC(=O)N1CCN(C)C[C@H]1C [AZD-3759]
measured-target: HT1080
relative viability: 1.02
//
compound: CNC(=O)c1cc(Oc2ccc(NC(=O)Nc3ccc(Cl)c(C(F)(F)F)c3)cc2)ccn1 [Sorafenib]
measured-target: HT1080
relative viability: 1.1

====

Tested on: SW872
Assay: relative viability vs DMSO control (72 h) (fraction); higher = more viable cells
Details: 0.04115 µM
The label is y for relative viability below 1 and n for relative viability equal to or exceeding 1.

compound-structure-string: Cc1cn(-c2cc(NC(=O)c3ccc(C)c(Nc4nccc(-c5cnccn5)n4)c3)cc(C(F)(F)F)c2)cn1
category-label: n
--
compound-structure-string: NC(=O)c1cnc2[nH]ccc2c1N[C@@H]1[C@@H]2CC3C[C@H]1C[C@@](O)(C3)C2
category-label: n
--
compound-structure-string: COc1cc2ncnc(Nc3ccc(F)c(Cl)c3)c2cc1NC(=O)/C=C/CN1CCCCC1
category-label: n
--
compound-structure-string: CN(C)C[C@@H]1CCn2cc(c3ccccc32)C2=C(C(=O)NC2=O)c2cn(c3ccccc23)CCO1
category-label: n
--
compound-structure-string: Cc1ccc(C(=O)OCc2ccc([C@@H](CN)C(=O)Nc3ccc4cnccc4c3)cc2)c(C)c1
category-label: y
--
compound-structure-string: Cc1nc(Nc2ncc(C(=O)Nc3c(C)cccc3Cl)s2)cc(N2CCN(CCO)CC2)n1
category-label: y

====

System: SW1353
Assay: standardised AUC of viability dose-response curve (72 h) (fraction (0-1)); higher = less growth inhibition (more resistant)
Decision: standardised AUC compared against 0.9; not below it gives true, below it gives false.

compound-structure-string: CN(C)C[C@@H]1CCn2cc(c3ccccc32)C2=C(C(=O)NC2=O)c2cn(c3ccccc23)CCO1
category-label: true
--
compound-structure-string: CN1CCN(CCOc2cc(OC3CCOCC3)c3c(Nc4c(Cl)ccc5c4OCO5)ncnc3c2)CC1
category-label: false
--
compound-structure-string: Cc1c(F)cc(C(=O)NC2CC2)cc1-c1ccc(C(=O)NCC(C)(C)C)cn1
category-label: true
--
compound-structure-string: Cc1ccc(C(=O)OCc2ccc([C@@H](CN)C(=O)Nc3ccc4cnccc4c3)cc2)c(C)c1
category-label: false
--
compound-structure-string: NC(=O)c1cccc2cn(-c3ccc([C@@H]4CCCNC4)cc3)nc12
category-label: true

====

Test system: SW684
Test: relative viability vs DMSO control (72 h) (fraction); higher = more viable cells
Conditions: 1.111 µM
Quick reference for relative viability among some compounds
property-measured: relative viability

compound-structure-string: Cc1c(F)cc(C(=O)NC2CC2)cc1-c1ccc(C(=O)NCC(C)(C)C)cn1
property-measured: relative viability
reading: 1.21
--
compound-structure-string: NC(=O)c1cnc2[nH]ccc2c1N[C@@H]1[C@@H]2CC3C[C@H]1C[C@@](O)(C3)C2
property-measured: relative viability
reading: 1.17
--
compound-structure-string: C[C@@H]1COC(Nc2ccc3ncnc(Nc4ccc(OCc5nccs5)c(Cl)c4)c3c2)=N1
property-measured: relative viability
reading: 1.06
--
compound-structure-string: Cc1cccc(-c2[nH]c(CNc3ccccc3F)nc2-c2ccc3ncnn3c2)n1
property-measured: relative viability
reading: 1.08
--
compound-structure-string: COc1cc(Nc2c(C#N)cnc3cc(OCCCN4CCN(C)CC4)c(OC)cc23)c(Cl)cc1Cl
property-measured: relative viability
reading: 1.05
--
compound-structure-string: Cc1ccc(NC(=O)c2ccc(CN3CCN(C)CC3)cc2)cc1Nc1nccc(-c2cccnc2)n1
property-measured: relative viability
reading: 1.03
--
compound-structure-string: CCCS(=O)(=O)N[C@H]1C[C@@H](N(C)c2ncnc3[nH]ccc23)C1
property-measured: relative viability
reading: 1.11
--
compound-structure-string: N#Cc1ccnc(N2C(=O)CC[C@H]2C(=O)N(c2cncc(F)c2)[C@H](C(=O)NC2CC(F)(F)C2)c2ccccc2Cl)c1
property-measured: relative viability
reading: 1.1

====

System: MES-SA
Assay: relative viability vs DMSO control (72 h) (fraction); higher = more viable cells
Conditions: 10 µM

compound: Cc1ccc(C(=O)OCc2ccc([C@@H](CN)C(=O)Nc3ccc4cnccc4c3)cc2)c(C)c1 [Netarsudil]
relative viability: 0.00233

compound: CCCCCCCCCCCCCCCCCCOP(=O)([O-])OC1CC[N+](C)(C)CC1 [Perifosine]
relative viability: 0.781

compound: COc1cc2c(Oc3ccc4[nH]c(C)cc4c3F)ccnc2cc1OCC1(N)CC1 [Anlotinib]
relative viability: 0.115

compound: COc1cc2nccc(Oc3ccc(NC(=O)NC4CC4)c(Cl)c3)c2cc1C(N)=O [Lenvatinib]
relative viability: 0.454

====

Quick reference for relative viability among some molecules
System: SYO-1
Experiment: relative viability vs DMSO control (72 h) (fraction); higher = more viable cells
Details: 0.1235 µM

molecule: COc1cc2nccc(Oc3ccc(NC(=O)C4(C(=O)Nc5ccc(F)cc5)CC4)cc3)c2cc1OC [Cabozantinib]
measured-target: SYO-1
relative viability: 0.708
--
molecule: C[C@@H]1COC(Nc2ccc3ncnc(Nc4ccc(OCc5nccs5)c(Cl)c4)c3c2)=N1
measured-target: SYO-1
relative viability: 1.02
--
molecule: COc1cc2nccc(Oc3ccc(NC(=O)NC4CC4)c(Cl)c3)c2cc1C(N)=O
measured-target: SYO-1
relative viability: 0.606
--
molecule: N#Cc1ccnc(N2C(=O)CC[C@H]2C(=O)N(c2cncc(F)c2)[C@H](C(=O)NC2CC(F)(F)C2)c2ccccc2Cl)c1
measured-target: SYO-1
relative viability: 1.02
--
molecule: COc1cc2c(Oc3ccc4[nH]c(C)cc4c3F)ccnc2cc1OCC1(N)CC1
measured-target: SYO-1
relative viability: 0.679

====

Tested on: KHOS-NP
Test: relative viability vs DMSO control (72 h) (fraction); higher = more viable cells
Details: 0.00457 µM
Quick reference for relative viability among some molecules

molecule: C[C@@H]1COC(Nc2ccc3ncnc(Nc4ccc(OCc5nccs5)c(Cl)c4)c3c2)=N1 [Varlitinib]
relative viability: 1.05

molecule: CO[C@H]1C[C@@H]2CC[C@@H](C)[C@@](O)(O2)C(=O)C(=O)N2CCCC[C@H]2C(=O)O[C@H]([C@H](C)C[C@@H]2CC[C@@H](O)[C@H](OC)C2)CC(=O)[C@H](C)/C=C(\C)[C@@H](O)[C@@H](OC)C(=O)[C@H](C)C[C@H](C)/C=C/C=C/C=C/1C [Rapamycin]
relative viability: 1.07

molecule: Cc1cn(-c2cc(NC(=O)c3ccc(C)c(Nc4nccc(-c5cccnc5)n4)c3)cc(C(F)(F)F)c2)cn1 [Nilotinib]
relative viability: 1.05

====

Tested on: SK-LMS-1
Experiment: relative viability vs DMSO control (72 h) (fraction); higher = more viable cells
Details: 0.3704 µM
property-measured: relative viability

compound-structure-string: COc1cc2nccc(Oc3ccc(NC(=O)NC4CC4)c(Cl)c3)c2cc1C(N)=O
reading: 1.04
--
compound-structure-string: C1=N/C2=N/c3ccc(OCCN4CCCC4)c(c3)COC/C=C/COCc3cccc(c3)C(=C1)N2
reading: 1.12
--
compound-structure-string: N#Cc1ccnc(N2C(=O)CC[C@H]2C(=O)N(c2cncc(F)c2)[C@H](C(=O)NC2CC(F)(F)C2)c2ccccc2Cl)c1
reading: 0.968
--
compound-structure-string: C[C@@H]1COC(Nc2ccc3ncnc(Nc4ccc(OCc5nccs5)c(Cl)c4)c3c2)=N1
reading: 1.04

====

System: G401
Experiment: relative viability vs DMSO control (72 h) (fraction); higher = more viable cells
Conditions: 0.00017 µM
Quick reference for relative viability among some compounds

compound-structure-string: CCCS(=O)(=O)N[C@H]1C[C@@H](N(C)c2ncnc3[nH]ccc23)C1
relative viability: 1

compound-structure-string: COc1cc2ncnc(Nc3cccc(Cl)c3F)c2cc1OC(=O)N1CCN(C)C[C@H]1C
relative viability: 1.03

compound-structure-string: CCCCCCCCCCCCCCCCCCOP(=O)([O-])OC1CC[N+](C)(C)CC1
relative viability: 1.06

compound-structure-string: COc1cc2nccc(Oc3ccc(NC(=O)NC4CC4)c(Cl)c3)c2cc1C(N)=O
relative viability: 0.992

====

Test system: KHOS-240S
Test: relative viability vs DMSO control (72 h) (fraction); higher = more viable cells
Details: 0.00457 µM
Quick reference for relative viability among some compounds

compound: Cc1ccc(NC(=O)c2ccc(CN3CCN(C)CC3)cc2)cc1Nc1nccc(-c2cccnc2)n1 [Imatinib]
measured-target: KHOS-240S
relative viability: 0.98
--
compound: C[C@H]1Oc2cc(cnc2N)-c2c(nn(C)c2C#N)CN(C)C(=O)c2ccc(F)cc21 [Lorlatinib]
measured-target: KHOS-240S
relative viability: 1.07
--
compound: CO[C@H]1C[C@@H]2CC[C@@H](C)[C@@](O)(O2)C(=O)C(=O)N2CCCC[C@H]2C(=O)O[C@H]([C@H](C)C[C@@H]2CC[C@@H](O)[C@H](OC)C2)CC(=O)[C@H](C)/C=C(\C)[C@@H](O)[C@@H](OC)C(=O)[C@H](C)C[C@H](C)/C=C/C=C/C=C/1C [Rapamycin]
measured-target: KHOS-240S
relative viability: 0.858
--
compound: CO[C@@H]1[C@H](N(C)C(=O)c2ccccc2)C[C@H]2O[C@]1(C)n1c3ccccc3c3c4c(c5c6ccccc6n2c5c31)C(=O)NC4 [Midostaurin]
measured-target: KHOS-240S
relative viability: 1.04
--
compound: NC(=O)c1cccc2cn(-c3ccc([C@@H]4CCCNC4)cc3)nc12 [Niraparib]
measured-target: KHOS-240S
relative viability: 1.07
--
compound: COc1cc2nccc(Oc3ccc(NC(=O)NC4CC4)c(Cl)c3)c2cc1C(N)=O [Lenvatinib]
measured-target: KHOS-240S
relative viability: 1.01

Hey, just so you know, these numbers are from the supplement of paper PMC10883282.
